systemUnderTest: PKCθ (Homo sapiens, UniProt Q04759)
Sequence (Q04759 whole entry): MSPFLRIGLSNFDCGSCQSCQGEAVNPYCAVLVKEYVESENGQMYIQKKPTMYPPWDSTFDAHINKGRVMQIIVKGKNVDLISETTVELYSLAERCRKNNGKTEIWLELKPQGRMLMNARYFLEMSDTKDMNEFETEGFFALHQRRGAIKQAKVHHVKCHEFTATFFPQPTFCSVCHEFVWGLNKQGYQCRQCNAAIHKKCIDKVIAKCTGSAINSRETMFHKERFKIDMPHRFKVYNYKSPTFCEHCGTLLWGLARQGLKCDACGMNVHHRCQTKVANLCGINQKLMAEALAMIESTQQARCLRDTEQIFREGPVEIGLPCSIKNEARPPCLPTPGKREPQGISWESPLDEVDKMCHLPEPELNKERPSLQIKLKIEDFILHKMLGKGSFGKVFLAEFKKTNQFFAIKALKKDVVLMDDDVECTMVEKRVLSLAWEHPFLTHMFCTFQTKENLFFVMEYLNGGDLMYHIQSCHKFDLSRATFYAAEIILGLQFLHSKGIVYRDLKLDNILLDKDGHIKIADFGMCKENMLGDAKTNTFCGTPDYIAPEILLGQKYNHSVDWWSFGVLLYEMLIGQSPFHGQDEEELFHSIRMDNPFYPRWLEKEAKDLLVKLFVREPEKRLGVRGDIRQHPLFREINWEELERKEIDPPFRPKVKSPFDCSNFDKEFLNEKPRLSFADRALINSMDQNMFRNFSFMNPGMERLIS
pIC50: −log10 of the molar value.
measurementName: pIC50

compound: O=C1NC(=O)C(c2c[nH]c3sccc23)=C1c1nc(N2CCN(C3CC3)CC2)nc2ccccc12 [E.1.18]
pIC50: > 7.00

compound: O=C1NC(=O)C(c2c[nH]c3sccc23)=C1c1nc(N2CCN3CCC[C@H]3C2)nc2ccccc12 [E.1.44]
pIC50: > 7.00

compound: O=C1NC(=O)C(c2c[nH]c3sccc23)=C1c1nc(N2CCC(CN3CCC3)CC2)nc2ccccc12 [E.1.17]
pIC50: > 7.00

compound: O=C1NC(=O)C(c2c[nH]c3sccc23)=C1c1nc(N2CCn3cnc(CO)c3C2)nc2ccccc12 [E.1.50]
pIC50: > 7.00

compound: CN1CCC(Cc2nc(C3=C(c4c[nH]c5sccc45)C(=O)NC3=O)c3ccccn23)CC1 [F.4.33]
pIC50: 6.00 to 6.30

compound: CN1CCN(c2nc(C3=C(c4c[nH]c5sccc45)C(=O)NC3=O)c3cccn3n2)CC1 [F.4.36]
pIC50: > 7.00

compound: NC(=O)C1CCN(c2nc(C3=C(c4c[nH]c5sccc45)C(=O)NC3=O)c3ccccc3n2)CC1 [E.1.14]
pIC50: 6.00 to 6.30

Now consider the entry below.
Query string: Item Cc1ncc2n1CCN(c1nc(C3=C(c4c[nH]c5sccc45)C(=O)NC3=O)c3ccccc3n1)C2 [E.1.26] has what recorded pIC50?
Result string: > 7.00
